Measured values drawn from PubChem BioAssay AID1963432 for this set.

# Test system: SYO-1 complex spheroid growth, percent test/control
# Experiment Notes: Anticancer human tumor SYO-1 cell line growth inhibition [Asc];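 further: compound exposure lasted 7 days after spheroids grew 3 days; 100% = DMSO vehicle control viability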
# Study Conditions: second compound 3 µM; first compound 0.0316 µM; stronger effect = lower value
# From the text: Multicellular complex tumor spheroid response to apoptosis pathway targeting inhibitors Alrizomadlin, Pelcitoclax, and Dasminapant in combination with a variety of drugs and investigational agents in selected tumor cell lines […] Compounds. […] If the clinical Cmax for an agent had not been determined, the highest concentration tested was 10 microM. […]
Consider the following compounds; for each one, report its viability, T/C.
Enter your answer as a number in %; do not include the unit.

In: GET /values?readout=viability, T/C&item= COc1c(OCCCN2CCOCC2)ccc2c3n(c(=NC(=O)c4cnc(N)nc4)nc12)CCN3 + CCN1C(C(=O)NC23CCC(C(=O)O)(CC2)CC3)C(c2cccc(Cl)c2F)C2(C(=O)Nc3cc(Cl)ccc32)C12CCCCC2
Out: 1.75

In: GET /values?readout=viability, T/C&item= CCN1CCN(Cc2ccc(Nc3ncc(F)c(-c4cc(F)c5nc(C)n(C(C)C)c5c4)n3)nc2)CC1 + CCN1C(C(=O)NC23CCC(C(=O)O)(CC2)CC3)C(c2cccc(Cl)c2F)C2(C(=O)Nc3cc(Cl)ccc32)C12CCCCC2
Out: 2.77

In: GET /values?readout=viability, T/C&item= O=C(c1ccc(F)c(F)c1Nc1ccc(I)cc1F)N1CC(O)([C@@H]2CCCCN2)C1 + CCN1C(C(=O)NC23CCC(C(=O)O)(CC2)CC3)C(c2cccc(Cl)c2F)C2(C(=O)Nc3cc(Cl)ccc32)C12CCCCC2
Out: 1.3

In: GET /values?readout=viability, T/C&item= Cn1ncnc1[C@H]1c2n[nH]c(=O)c3cc(F)cc(c23)N[C@@H]1c1ccc(F)cc1 + CCN1C(C(=O)NC23CCC(C(=O)O)(CC2)CC3)C(c2cccc(Cl)c2F)C2(C(=O)Nc3cc(Cl)ccc32)C12CCCCC2
Out: 1.53

In: GET /values?readout=viability, T/C&item= C#Cc1c(F)ccc2cc(O)cc(-c3ncc4c(N5CC6CCC(C5)N6)nc(OCC56CCCN5CC(F)C6)nc4c3F)c12 (stereo unspecified) + CCN1C(C(=O)NC23CCC(C(=O)O)(CC2)CC3)C(c2cccc(Cl)c2F)C2(C(=O)Nc3cc(Cl)ccc32)C12CCCCC2
Out: 1.29

In: GET /values?readout=viability, T/C&item= C=CC(=O)N1CCN(c2nc(=O)n(-c3c(C)ccnc3C(C)C)c3nc(-c4c(O)cccc4F)c(F)cc23)C(C)C1 (stereo unspecified) + CCN1C(C(=O)NC23CCC(C(=O)O)(CC2)CC3)C(c2cccc(Cl)c2F)C2(C(=O)Nc3cc(Cl)ccc32)C12CCCCC2
Out: 1.34

* * *

# Tested on: SYO-1 complex spheroid growth, percent test/control
# Experiment Notes: Anticancer human tumor SYO-1 cell line growth inhibition [Asc];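 further: compound exposure lasted 7 days after spheroids grew 3 days; 100% = DMSO vehicle control viability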
# Study Conditions: second compound 0.3 µM; first compound 3.16 µM; stronger effect = lower value
Property Measured: viability, T/C (%)
Enter your answer as a number in %; do not include the unit.

In: GET /values?readout=viability, T/C&item= C=C(F)C(=O)N1CCN(c2nc(OCC3CCCN3C)nc3c2CCN(c2cccc4cccc(Cl)c24)C3)CC1CC#N (centres undefined) + CCN1C(C(=O)NC23CCC(C(=O)O)(CC2)CC3)C(c2cccc(Cl)c2F)C2(C(=O)Nc3cc(Cl)ccc32)C12CCCCC2
Out: 1.47

In: GET /values?readout=viability, T/C&item= C=CC(=O)N1CCN(c2nc(=O)n(-c3c(C)ccnc3C(C)C)c3nc(-c4c(O)cccc4F)c(F)cc23)C(C)C1 (centres undefined) + CCN1C(C(=O)NC23CCC(C(=O)O)(CC2)CC3)C(c2cccc(Cl)c2F)C2(C(=O)Nc3cc(Cl)ccc32)C12CCCCC2
Out: 21.3

In: GET /values?readout=viability, T/C&item= C#Cc1c(F)ccc2cc(O)cc(-c3ncc4c(N5CC6CCC(C5)N6)nc(OCC56CCCN5CC(F)C6)nc4c3F)c12 (centres undefined) + CCN1C(C(=O)NC23CCC(C(=O)O)(CC2)CC3)C(c2cccc(Cl)c2F)C2(C(=O)Nc3cc(Cl)ccc32)C12CCCCC2
Out: 21.6

In: GET /values?readout=viability, T/C&item= O=C(c1cc(Cc2n[nH]c(=O)c3ccccc23)ccc1F)N1CCN(C(=O)C2CC2)CC1 + CCN1C(C(=O)NC23CCC(C(=O)O)(CC2)CC3)C(c2cccc(Cl)c2F)C2(C(=O)Nc3cc(Cl)ccc32)C12CCCCC2
Out: 4.23
